Entry source: PubChem BioAssay AID2810

assay: modulators of CD8 T cell-vesicle binding, confirmation, cherry-picked primary hits, two concentrations (AID 2810); conditions: 2C CD8+ T cell-vesicle binding, flow cytometry; at 15.4 µM; active compounds read low;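 further: ratio of mean FL2 vesicle stain of CD8+ cells to that row's control; lower values mean blocking of vesicle binding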
Among all 1,200 compounds or so, about 65 (5%) were called active. Shown is part of a subset that was picked to be rich in actives.
Quick reference: percent response (vesicle binding) of the listed items.
Experimental endpoint: percent response (vesicle binding) (%)

compound=CCN1CCN(c2ccc(S(=O)(=O)N3CCCCC3)cc2NC(=O)c2cccc(C)c2[N+](=O)[O-])CC1 value_units=% reported_value=238
compound=COc1ccc([C@H]2CC(=O)C=C(/C=C/c3ccccc3)C2)cc1 value_units=% reported_value=36.9
compound=COc1ccc([C@H]2CC(=O)C=C(c3cccc(Cl)c3)C2)cc1 value_units=% reported_value=129
compound=COc1cc2ccccc2cc1C(=O)NC1CCCCC1 value_units=% reported_value=121
compound="Cc1cccc(OCC(=O)NC(Cc2ccccc2)C(=O)O)c1 (stereo unspecified)" value_units=% reported_value=295
compound=COc1ccc([C@H]2CC(=O)C=C(c3cc(F)ccc3OC)C2)cc1 value_units=% reported_value=198
compound=CC(/C=C/c1ccc(C)o1)=C\C(=O)O value_units=% reported_value=196
compound="COc1ccc(C2=CC(=O)CC(c3ccc(OC)cc3)C2)cc1 (stereo unspecified)" value_units=% reported_value=110
compound=COc1ccc([C@H]2CC(=O)C=C(c3ccc(OC)nc3)C2)cc1 value_units=% reported_value=212
compound=Cc1ccc(S(=O)(=O)N2CCN(c3ncnc4ccccc34)CC2)cc1 value_units=% reported_value=103
compound=CCN1CCN(c2ccc(NC(=O)c3cc4ccccc4cc3OC)cc2C)CC1 value_units=% reported_value=55.9

----------
assay: modulators of CD8 T cell-vesicle binding, confirmation, cherry-picked primary hits, two concentrations (AID 2810); conditions: 2C CD8+ T cell-vesicle binding, flow cytometry; at 15.4 µM; active compounds read low;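 further: ratio of mean FL2 vesicle stain of CD8+ cells to that row's control; lower values mean blocking of vesicle binding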
Screen size: about 1,200 compounds; about 65 (5%) were called active. The sample as a whole holds a higher share of actives than the screen did.
Experimental endpoint: percent response (vesicle binding) (%)

compound=COc1ccc(NC(=O)Nc2c(O)ccc3ccccc23)cc1 reported_value=132
compound=CCOC(=O)C1CCN(C(=O)CN2C(=O)c3ccccc3S2(=O)=O)CC1 reported_value=203
compound=COc1ccc(OC)c(NC(=O)c2ccccc2SC)c1 reported_value=242
compound=CC(=O)c1ccc(Nc2cc(C)nc3nc(C)nn23)cc1 reported_value=90.9
compound=CCOc1ccc(-c2nc(N)ncc2-c2ccccc2)c(O)c1 reported_value=276
compound=COc1ccc2nc(SCC(=O)Nc3ccc4c(c3)OCCO4)[nH]c2c1 reported_value=168
compound="CCOC(=O)C1CCCN(c2cc(=O)n(-c3ccccc3Cl)c(=O)[nH]2)C1 (stereo not drawn)" reported_value=18.2
compound=CC(=O)COc1ccc2c(-c3ccccc3)cc(=O)oc2c1 reported_value=123
compound="CCCCCC(=O)N[C@@H](c1ccccc1)[C@@H](O)C(=O)O[C@H]1C[C@@]2(O)[C@@H](OC(=O)c3ccccc3)C3[C@](C)(C(=O)[C@H](OC(C)=O)C(=C1C)C2(C)C)[C@@H](O)C[C@H]1OC[C@@]31OC(C)=O (stereo partly drawn)" reported_value=252
compound=CCOC(=O)CSc1nc(C)nc2c1sc1nc(C)c(C(C)=O)c(-c3ccc(OC)cc3)c12 reported_value=128
compound="Cc1cc(F)ccc1S(=O)(=O)N1CCCOC1CNC(=O)C(=O)NC1CCCC1 (stereo not drawn)" reported_value=255
compound="COc1ccc(/C(O)=C2/C(=O)C(=O)N(Cc3cccnc3)C2c2ccco2)cc1OC (stereo not drawn)" reported_value=27
compound=Cc1c(C(=O)NCCSCc2c(F)cccc2Cl)cnn1-c1ccc(Cl)cc1 reported_value=26.4
compound="CCOC(=O)C1CCCN(S(=O)(=O)c2ccc(F)c(C(=O)Nc3ccc(F)c(F)c3)c2)C1 (stereo not drawn)" reported_value=153
compound=CS(=O)(=O)c1cccc(-c2csc(N3CCC(C(N)=O)CC3)n2)c1 reported_value=182
compound=CCn1c(=O)cc(SCC(=O)N2CCN(c3ccccc3F)CC2)c2ccccc21 reported_value=78.7
compound="COc1ccc(Br)cc1CN(C)C(=O)c1ccc2c(c1)NC(=O)C(C)S2 (stereo not drawn)" reported_value=221
compound=Cc1cc(C)cc(NC(=O)CC23CC4CC(C2)CC(n2nnc(C)n2)(C4)C3)c1 reported_value=236
compound="O=C(Nc1ccccc1)N1CCc2c([nH]c3ccccc23)C1C(F)(F)F (stereo not drawn)" reported_value=145
compound=CCOC(=O)C1(Cc2cccc(OC)c2)CCN(Cc2ccc3c(c2)OCCO3)CC1 reported_value=114
compound=Cc1cccc(C)c1OCc1nnc(NC(=O)CSc2ccc(Cl)cc2)s1 reported_value=211
compound=CCOc1ccc(CCNC(=O)CCS(=O)(=O)c2ccc(C)cc2)cc1OCC reported_value=215
compound=CS(=O)(=O)NCc1ccccc1Br reported_value=34
compound=COc1cccc(NC(=O)Nc2ccc3nc(C)c(C)nc3c2)c1 reported_value=103
compound=O=C(c1c[nH]c2ccccc12)N1CCN(Cc2ccccc2)CC1 reported_value=47.9
compound=O=C(c1ccc(Cl)cc1)N1CCC(C(=O)N2CCN(c3ncccn3)CC2)CC1 reported_value=173
compound=Cc1ccccc1/C(N)=N/OC(=O)c1cccs1 reported_value=190
compound=Cc1ccc(C)c(OC(=O)c2cncc(Br)c2)c1 reported_value=147
compound=CCOc1ccc(CCNC(=O)c2cccc(-n3cnnn3)c2)cc1OCC reported_value=39.3
compound=Cc1ccc(NC(=O)COC(=O)c2c(-c3ccccc3)noc2C)c(C)c1 reported_value=137
compound=CCCc1nnc(NC(=O)CCC(=O)N2CCC(Cc3ccccc3)CC2)s1 reported_value=200
compound=COc1ccc(NC(=O)Nc2ccc(O)c3ccccc23)cc1 reported_value=103
compound=O=C(NC(=S)NCc1ccco1)c1ccc(Br)cc1 reported_value=52.9
compound=CCc1ccc(OCc2cnc(Cl)s2)cc1 reported_value=277
compound=CC(=O)c1ccc(-c2csc(N3CCC(C(N)=O)CC3)n2)cc1 reported_value=28.3
compound=O=S(=O)(NN=C1CCCCCCC1)c1ccc(Br)cc1 reported_value=144
compound=CCOC(=O)N1CCN(C(=O)c2ccc(N3CCCC3=O)cc2)CC1 reported_value=213
compound=COc1ccc(Cl)cc1NS(=O)(=O)c1cccc(C(=O)NCC(C)(C)N2CCOCC2)c1 reported_value=317
compound=Cc1c2cccn2cc[n+]1C reported_value=29.6
compound="COCCN1C(=O)C(=O)/C(=C(/O)c2cccc(OC)c2)C1c1ccc(C)o1 (stereo not drawn)" reported_value=205
compound="CCOc1ccc(/C(O)=C2/C(=O)C(=O)N(CCN(CC)CC)C2c2cccs2)cc1 (stereo not drawn)" reported_value=300
compound=CCOC(=O)N1CCN(Cc2nc(-c3ccc(C)cc3)no2)CC1 reported_value=63
compound="O=C(NCC1CCCO1)C(=O)NCC(c1ccco1)N1CCN(c2ccc(F)cc2)CC1 (stereo not drawn)" reported_value=199
